- Test system: NCI-H522 lung
- experiment-description: NCI tumour cell line growth inhibition, 48 h
GI50 overview

In [3]: df
Out[3]:
                                     smiles  measure_name    result
0  CCN(CC)CC[n+]1ccc2c(C)c3[nH]c4ccc(O)cc4c3c(C)c2c1          GI50   1.56 µM
1  COc1ccc(/C=C2\COc3ccc(O)c(O)c3C2=O)c(OC)c1OC          GI50  0.933 µM
2               N#CC(C#N)=C1CCOc2ccc(F)cc21          GI50  > 100 µM
3  COC(=O)c1cc2oc(/C=C3/SC(=S)N(N)C3=O)cc2n1Cc1ccccc1          GI50   7.81 µM
4  CC(C)(C)c1cc(/C=N/NC(=O)c2ccccc2NC(=O)c2cccs2)c(O)c(C(C)(C)C)c1          GI50   1.84 µM

-- ask In one line, give reported GI50 of the entry COc1ccc(NC2=C(I)C(=O)c3ncccc3C2=O)cc1 .
-- reply 0.827 µM

-- ask In one line, give reported GI50 of the entry COc1ccc(C(=NN=C(N)N)c2ccc(OC)cc2)cc1 .
-- reply 2.9 µM

* * *

- Test system: HOP-92 NSCLC
- experiment-description: NCI tumour cell line growth inhibition, 48 h; in the data active = GI50 below about 0.43 µM; inactive = the rest
Use one of these outcomes when replying: active, inactive

compound	category-label
NC(=S)N/N=C1\c2ccccc2-c2c(F)c(F)c(F)c(F)c21	inactive
O=c1c2ccccc2c(/C=N\NC2=NCCN2)c2oc3ccccc3n12	inactive
CC1(C)N=C(N)N=C(N)N1c1ccc(OCCCNC(=O)Nc2cccc(S(=O)(=O)F)c2)c(Cl)c1	inactive
N#CC1=C(N)NC(=S)NC12Nc1ccccc1S2 (stereo unspecified)	inactive
C=CC(=O)NC(N)=NC#N	inactive

-- ask Recorded test outcome, item COCCOC1=CC(=O)c2c(O)ccc(O)c2C1=O
-- reply inactive

-- ask Recorded test outcome, item COC(=O)[C@]12CC[C@@H](C)[C@H](C)[C@@H]1C1=CC[C@@H]3[C@@]4(C)C[C@@H](OC(=O)/C=C/c5ccccc5)[C@H](O)[C@@](C)(CO)[C@@H]4[C@H](O)C[C@@]3(C)[C@]1(C)CC2
-- reply inactive

-- ask Recorded test outcome, item COC1=C(C)C(=O)c2c(c(CCCl)c3n2CCC3OC(C)=O)C1=O (stereo unspecified)
-- reply inactive

-- ask Recorded test outcome, item CN(C)CCCSc1ccccc1NC1=C(Cl)C(=O)C(Nc2ccccc2SCCCN(C)C)=C(Cl)C1=O
-- reply inactive

-- ask Recorded test outcome, item O=C(C=P(c1ccccc1)(c1ccccc1)c1ccccc1)CCl
-- reply active

-- ask Recorded test outcome, item O=C(O)c1cc(=O)cc(C(=O)O)o1
-- reply inactive

-- ask Recorded test outcome, item Cc1cnc2oc3ccc(O)cc3c2c1-c1ccccc1
-- reply inactive

-- ask Recorded test outcome, item C=CC(=O)N1C[C@@H]2CCOc3c(Cl)c(-c4c(O)cccc4F)c(F)c4ncnc(c34)N2C[C@H]1C
-- reply inactive

-- ask Recorded test outcome, item COc1cc([N+](=O)[O-])c(OC)cc1-c1nc2sc(C)cn2c1/C(N)=N/C(=N)N
-- reply inactive

-- ask Recorded test outcome, item COc1cccc(-c2cc(=O)c3cc(N4CCOCC4)ccc3[nH]2)c1
-- reply active

-- ask Recorded test outcome, item Cc1ccc(C=C2C(Cl)=C(Cl)C(Cl)=C2Cl)cc1
-- reply inactive
